systemTested: human ether-à-go-go-related gene (hERG) potassium channel (human, UniProt Q12809)
Sequence (Q12809 whole entry, looked up): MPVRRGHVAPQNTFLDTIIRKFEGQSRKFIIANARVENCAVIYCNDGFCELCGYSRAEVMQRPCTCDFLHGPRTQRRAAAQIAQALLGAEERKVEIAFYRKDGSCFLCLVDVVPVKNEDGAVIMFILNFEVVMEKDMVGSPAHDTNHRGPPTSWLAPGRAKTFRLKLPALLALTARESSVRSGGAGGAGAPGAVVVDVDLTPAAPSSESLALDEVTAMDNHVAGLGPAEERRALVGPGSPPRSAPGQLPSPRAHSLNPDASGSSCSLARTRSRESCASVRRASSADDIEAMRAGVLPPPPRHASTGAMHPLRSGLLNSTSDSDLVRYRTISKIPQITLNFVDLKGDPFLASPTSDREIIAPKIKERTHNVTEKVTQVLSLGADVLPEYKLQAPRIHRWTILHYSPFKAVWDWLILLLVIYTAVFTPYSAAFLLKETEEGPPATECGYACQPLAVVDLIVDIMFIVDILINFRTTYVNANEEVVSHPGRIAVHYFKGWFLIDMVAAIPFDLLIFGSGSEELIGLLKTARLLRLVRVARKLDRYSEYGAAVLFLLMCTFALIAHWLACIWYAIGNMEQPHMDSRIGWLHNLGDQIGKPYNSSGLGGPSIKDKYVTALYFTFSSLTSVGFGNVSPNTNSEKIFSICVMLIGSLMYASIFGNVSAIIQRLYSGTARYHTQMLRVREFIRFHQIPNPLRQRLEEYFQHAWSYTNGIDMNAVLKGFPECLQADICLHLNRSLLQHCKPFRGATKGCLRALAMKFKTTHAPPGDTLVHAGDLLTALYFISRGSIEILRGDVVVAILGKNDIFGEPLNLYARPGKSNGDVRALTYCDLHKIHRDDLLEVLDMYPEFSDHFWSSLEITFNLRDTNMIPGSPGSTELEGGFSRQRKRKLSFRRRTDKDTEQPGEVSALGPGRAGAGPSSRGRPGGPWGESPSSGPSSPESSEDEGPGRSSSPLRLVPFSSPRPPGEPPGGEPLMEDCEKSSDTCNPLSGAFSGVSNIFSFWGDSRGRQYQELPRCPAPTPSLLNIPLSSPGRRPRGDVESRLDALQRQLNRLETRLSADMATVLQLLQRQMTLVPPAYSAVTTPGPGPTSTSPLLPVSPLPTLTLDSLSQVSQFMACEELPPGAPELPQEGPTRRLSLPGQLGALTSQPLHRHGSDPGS
testDetails: primary screen, population patch clamp on CHO cells stably expressing hERG; higher = less effect of the substance
Screen size: about 310,000 compounds; about 14,000 (4.5%) showed an effect of 50% or more. The effect is printed as a negative number. The entries come from a sample that favours strong results as a whole.
measurementKind: hERG current change (%, negative = inhibition) at 10uM (%)
Field: numeric (%). Do not append units.

Reference set, count: 4
>  <compound>
CC(=O)N[C@@H](C)c1nc2ccccc2n1CCCN1CCN(c2nc(-c3ccc(C)cc3)cs2)CC1

>  <readingUnit>
%

>  <dataValue>
-56.2

$$$$
>  <compound>
Cc1ccc(NS(=O)(=O)c2ccc3c(c2)c(=O)n(C)c(=O)n3C)cc1F

>  <readingUnit>
%

>  <dataValue>
-15.5

$$$$
>  <compound>
O=C1CCCC(=O)C1=C1SCCCS1

>  <readingUnit>
%

>  <dataValue>
-5.96

$$$$
>  <compound>
Cl.O=C(NCC(c1cccs1)N1CCOCC1)c1ccc(Cl)s1 (stereo not drawn)

>  <readingUnit>
%

>  <dataValue>
-21.6

$$$$

Ask: human ether-à-go-go-related gene (hERG) potassium channel (human, UniProt Q12809) / hERG current change (%, negative = inhibition) at 10uM / O=C1CCCC2=C1C(c1ccncc1)c1c(nc(SCc3ccccc3)[nH]c1=O)N2 (stereo not drawn) : value?
Result: 17.7

Ask: human ether-à-go-go-related gene (hERG) potassium channel (human, UniProt Q12809) / hERG current change (%, negative = inhibition) at 10uM / N#CC(=C1SC=CS1)c1nc(-c2ccccc2)cs1 : value?
Result: 9.47

Ask: human ether-à-go-go-related gene (hERG) potassium channel (human, UniProt Q12809) / hERG current change (%, negative = inhibition) at 10uM / Cc1n[nH]c(C)c1N1C(=O)c2cccc3c(N4CCCCCC4)ccc(c23)C1=O : value?
Result: -21.5

Ask: human ether-à-go-go-related gene (hERG) potassium channel (human, UniProt Q12809) / hERG current change (%, negative = inhibition) at 10uM / CC(C)N(C(=O)Cn1c(SCC(=O)NCc2ccc3c(c2)OCO3)nc2ccccc21)C(C)C : value?
Result: -34.1

Ask: human ether-à-go-go-related gene (hERG) potassium channel (human, UniProt Q12809) / hERG current change (%, negative = inhibition) at 10uM / Oc1ccc(Br)cc1CNc1cnc2ccccc2c1 : value?
Result: 16.4

Ask: human ether-à-go-go-related gene (hERG) potassium channel (human, UniProt Q12809) / hERG current change (%, negative = inhibition) at 10uM / Cc1ccc(-c2csc(N3CCN(CCCn4c(C(F)(F)F)nc5ccccc54)CC3)n2)cc1 : value?
Result: -4.95

Ask: human ether-à-go-go-related gene (hERG) potassium channel (human, UniProt Q12809) / hERG current change (%, negative = inhibition) at 10uM / O=C(COC(=O)c1cccc(C(=O)OCC(=O)NCc2ccc(F)cc2)n1)NCc1ccc(F)cc1 : value?
Result: -15.5

Ask: human ether-à-go-go-related gene (hERG) potassium channel (human, UniProt Q12809) / hERG current change (%, negative = inhibition) at 10uM / O=C(OCc1ccc([N+](=O)[O-])cc1)c1ccccn1 : value?
Result: -28.2

Ask: human ether-à-go-go-related gene (hERG) potassium channel (human, UniProt Q12809) / hERG current change (%, negative = inhibition) at 10uM / Cc1ccc(-c2csc(N3CCN(CCCn4c(-c5ccncc5)nc5ccccc54)CC3)n2)cc1 : value?
Result: -32.4

Ask: human ether-à-go-go-related gene (hERG) potassium channel (human, UniProt Q12809) / hERG current change (%, negative = inhibition) at 10uM / CCc1ccc(/C=C2\Oc3cc(OS(C)(=O)=O)ccc3C2=O)cc1 : value?
Result: 11.8

Ask: human ether-à-go-go-related gene (hERG) potassium channel (human, UniProt Q12809) / hERG current change (%, negative = inhibition) at 10uM / Cc1nc2ccc(C(=O)N(C)CC3CCCN(CCc4ccc(Cl)cc4)C3)cc2[nH]1 (stereo not drawn) : value?
Result: -61.2

---

systemTested: human ether-à-go-go-related gene (hERG) potassium channel (human, UniProt Q12809)
testDetails: primary screen, population patch clamp on CHO cells stably expressing hERG; higher = less effect of the substance
The campaign covered roughly 310,000 compounds. About 14,000 (4.5%) showed an effect of 50% or more. Effects have a minus sign here. For the sample, strong results were picked, then their nearest neighbours and some compounds at random.
Items are presented alongside their recorded hERG current change (%, negative = inhibition) at 10uM.
Field: numeric (%). Do not append units.

>  <molecule>
COCCN(C(=O)CSc1nnc(C)n1-c1ccc(C)cc1)c1c(N)n(Cc2ccccc2)c(=O)[nH]c1=O

>  <dataValue>
-2.83

$$$$
>  <molecule>
O=C(CSCc1ccc(Cl)cc1)N1CCN(Cc2ccc3c(c2)OCO3)CC1

>  <dataValue>
-48.2

$$$$
>  <molecule>
CN1CCN(c2ccc(Cl)cc2NC(=O)CC2OC(=O)c3ccccc32)CC1 (centres unmarked)

>  <dataValue>
-74.5

$$$$

Ask: Could you share which hERG current change (%, negative = inhibition) at 10uM value was measured for O=C(CNC(=O)c1ccccc1)OCC(=O)N1N=C(c2ccc(Cl)cc2)CC1c1ccco1 (centres unmarked) ?
Result: -72.5

Ask: Could you share which hERG current change (%, negative = inhibition) at 10uM value was measured for Cc1cc2c3c(c1C)C(=O)C(=O)N3C(C)(C)CC2C (centres unmarked) ?
Result: 6.5

---

systemTested: human ether-à-go-go-related gene (hERG) potassium channel (human)
testDetails: primary screen, population patch clamp on CHO cells stably expressing hERG; higher = less effect of the substance
Among all 310,000 compounds or so, about 14,000 (4.5%) showed an effect of 50% or more. The effect is printed as a negative number. What follows is part of a selection rich in strong results, with near analogues and random picks from the rest.
measurementKind: hERG current change (%, negative = inhibition) at 10uM
Respond with a number, then the unit of measure.

Ask: Could you share which hERG current change (%, negative = inhibition) at 10uM value was measured for COc1cccc(OCCn2cccc2/C=C2/C(=N)N3OC(C)=CC3=NC2=O)c1 ?
Result: -23.5%

---

Items are presented alongside their recorded hERG current change (%, negative = inhibition) at 10uM.
systemTested: human ether-à-go-go-related gene (hERG) potassium channel (human, UniProt Q12809)
testDetails: primary screen, population patch clamp on CHO cells stably expressing hERG; higher = less effect of the substance
Among all 310,000 compounds or so, about 14,000 (4.5%) showed an effect of 50% or more. The effect is printed as a negative number. The sample holds strong results, similar compounds and a random draw of the others, so the mix is not that of the screen.

Reference set, count: 2
>  <compound>
O=C(NC1CCN(CCc2c[nH]c3ccccc23)CC1)c1ccccc1

>  <dataValue>
-71.7%

$$$$
>  <compound>
COC(=O)C1=COC(C)C2CN3CCc4c([nH]c5ccccc45)C3CC12 (stereo not drawn)

>  <dataValue>
-34.3%

$$$$

Ask: Could you share which hERG current change (%, negative = inhibition) at 10uM value was measured for Cc1ccc(CN2CC(C(=O)N3CC(C)CC(C)C3)CC2=O)cc1 (stereo not drawn) ?
Result: -6.13%

---

systemTested: human ether-à-go-go-related gene (hERG) potassium channel (human)
testDetails: primary screen, population patch clamp on CHO cells stably expressing hERG; higher = less effect of the substance
The whole screen tested about 310,000 compounds, of which about 14,000 (4.5%) showed an effect of 50% or more. Effects have a minus sign here. This is one part of a sample in which strong results are shown more often than they occur.
Items are presented alongside their recorded hERG current change (%, negative = inhibition) at 10uM.
Field: numeric (%). Do not append units.

Reference set, count: 5
>  <compound>
CN1C(=O)c2ccccc2Sc2ccc(NC(=O)N3CCOCC3)cc21

>  <systemTested>
human ether-à-go-go-related gene (hERG) potassium channel (human)

>  <dataValue>
-7.88

$$$$
>  <compound>
COc1ccc(S(=O)(=O)N2CCCCCC2)cc1C(=O)OCC(=O)NC(C)(C)C

>  <systemTested>
human ether-à-go-go-related gene (hERG) potassium channel (human);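 note: peak tail current of the secondary pulse compared with the same well before compound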

>  <dataValue>
-17.5

$$$$
>  <compound>
Cc1ccn2cc(-c3cccc(NC(=O)C(C)C)c3)nc2c1

>  <systemTested>
human ether-à-go-go-related gene (hERG) potassium channel (human);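 note: peak tail current of the secondary pulse compared with the same well before compound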

>  <dataValue>
3.3

$$$$
>  <compound>
C/C(=N\NC(=O)CNC(=O)c1ccc(Br)cc1)c1ccco1

>  <systemTested>
human ether-à-go-go-related gene (hERG) potassium channel (human);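 note: peak tail current of the secondary pulse compared with the same well before compound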

>  <dataValue>
5.38

$$$$
>  <compound>
Cn1c(=O)c2sccc2n2c(CCCC(=O)N3CCN(c4ccccn4)CC3)nnc12

>  <systemTested>
human ether-à-go-go-related gene (hERG) potassium channel (human);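 note: peak tail current of the secondary pulse compared with the same well before compound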

>  <dataValue>
-11.1

$$$$

Ask: Could you share which hERG current change (%, negative = inhibition) at 10uM value was measured for COc1ccc2c(c1)[nH]c1c(=O)n(CCN3CCCC3)cnc12 ?
Result: -46.3

Ask: Could you share which hERG current change (%, negative = inhibition) at 10uM value was measured for C/C(=N\NC(=O)CNc1cccc2ccccc12)c1ccc(Br)s1 ?
Result: 6.57

Ask: Could you share which hERG current change (%, negative = inhibition) at 10uM value was measured for CCN(CC)CCCN(C(=O)c1ccccc1C)c1nc(-c2ccc(OC)cc2)cs1 ?
Result: -55.5

Ask: Could you share which hERG current change (%, negative = inhibition) at 10uM value was measured for O=C(CCc1nnc2n(Cc3ccc(F)cc3)c(=O)c3ccccc3n12)N1CCN(c2ccccn2)CC1 ?
Result: -79.2

Ask: Could you share which hERG current change (%, negative = inhibition) at 10uM value was measured for CCC1CCCN1Cn1cnc2c([nH]c3ccc(OC)cc32)c1=O (stereo not shown) ?
Result: -62.6

Ask: Could you share which hERG current change (%, negative = inhibition) at 10uM value was measured for Cc1cc(Br)ccc1NC(=O)c1ccc(-n2cncn2)c([N+](=O)[O-])c1 ?
Result: 12.3

Cited source for all entries: paper PMC4336329
